Tested on: MCF-7 breast cancer cells
EXPERIMENTAL_PROTOCOL: MTT cell toxicity assay in MCF-7 breast cancer cells
Format: cell-based
ASSAY_CONDITIONS: MCF-7 cells, MTT, final 0.5% FBS, two days with compound
Where a SMILES comes first, the peptide text is derived from it. The star is where a group is joined. Palmitoyl = CCCCCCCCCCCCCCCC(=O)*
Reported values of GI50 for individual entries
MEASURED_PARAMETER: GI50 (nM)

INSERT INTO assay_data (compound, assayed_target, measured_parameter, numeric_value) VALUES
  ('CCCCCCCCCCCCCCCC(=O)N[C@@H](CCCNC(=N)N)C(=O)N[C@@H](CC(N)=O)C(=O)N[C@@H](CC(N)=O)C(=O)N[C@@H](CO)C(=O)N[C@@H](CCCNC(=N)N)C(=O)N[C@@H](CC(C)C)C(=O)NCC(=O)N[C@@H](CC(N)=O)C(=O)NCC(=O)N[C@H](C(=O)N[C@@H](CC(C)C)C(=O)N[C@@H](Cc1ccc(O)cc1)C(=O)N[C@@H](C)C(=O)N[C@@H](CO)C(=O)N[C@H](C(=O)N[C@@H](CC(N)=O)C(N)=O)C(C)C)C(C)C [Peptide 14, Pal-RNNSRLGNGVLYASVN-NH2] (Palmitoyl-RNNSRLGNGVLYASVN-NH2)', 'MCF-7 breast cancer cells', 'GI50', 100),
  ('CCCCCCCCCCCCCCCC(=O)N[C@@H](CCCNC(=N)N)C(=O)N[C@@H](CC(N)=O)C(=O)N[C@@H](CC(N)=O)C(=O)N[C@@H](CO)C(=O)N[C@@H](CCCNC(=N)N)C(=O)N[C@@H](CC(C)C)C(=O)NCC(=O)N[C@@H](CC(N)=O)C(=O)NCC(=O)N[C@H](C(=O)N[C@@H](CC(C)C)C(=O)N[C@@H](Cc1ccccc1)C(N)=O)C(C)C [Peptide 29, Pal-RNNSRLGNGVLF-NH2] (Palmitoyl-RNNSRLGNGVLF-NH2)', 'MCF-7 breast cancer cells', 'GI50', 100);
